Sourced from paper PMC10329767

# target.entity: 3-FY158 InhA
# experimental.conditions: read-out: Kiapp; PT166, rapid reversible, global fit to equations 6 and 7
assay.endpoint: Ki
Entry format: amount then unit.

Task: Fill blank: measured Ki of the compound `CCCCCCc1cc(=O)c(Oc2ccccc2C)cn1C` is ____.
Output: 33 nM

----------
# target.entity: 2,3,5-F3Y158 InhA
# experimental.conditions: NADH binding, 25 °C, pH 6.8
assay.endpoint: pKd
Kindly note that pKd refers to -log10 of the concentration in mol/L and answer with the value alone.

Task: Fill in: pKd of NC(=O)C1=CN([C@@H]2O[C@H](COP(=O)(O)OP(=O)(O)OC[C@H]3O[C@@H](n4cnc5c(N)ncnc54)[C@H](O)[C@@H]3O)[C@@H](O)[C@H]2O)C=CC1 [NADH] is ___
Output: 5.06

----------
# target.entity: 3,5-F2Y158 InhA
# experimental.conditions: read-out: Kiapp; PT166, rapid reversible, global fit to equations 6 and 7
assay.endpoint: Ki
Report the figure along with its unit, number first.

Task: Query: Ki; subject: `CCCCCCc1cc(=O)c(Oc2ccccc2C)cn1C`
Output: 48 nM

----------
# target.entity: wild-type InhA (Mycobacterium tuberculosis)
assay.endpoint: pKd
The meaning of pKd here: minus log10 of the concentration in molar units.

Task: Please tell me: pKd of `NC(=O)C1=CN([C@@H]2O[C@H](COP(=O)(O)OP(=O)(O)OC[C@H]3O[C@@H](n4cnc5c(N)ncnc54)[C@H](O)[C@@H]3O)[C@@H](O)[C@H]2O)C=CC1` , system wild-type InhA (Mycobacterium tuberculosis)?
Output: 5.09

----------
# target.entity: 3,5-F2Y158 InhA
# experimental.conditions: NADH binding, 25 °C, pH 6.8
assay.endpoint: pKd
Lab note — pKd values are minus log10 of concentrations in M.

Task: Requested read-out: pKd. Entry: `NC(=O)C1=CN([C@@H]2O[C@H](COP(=O)(O)OP(=O)(O)OC[C@H]3O[C@@H](n4cnc5c(N)ncnc54)[C@H](O)[C@@H]3O)[C@@H](O)[C@H]2O)C=CC1`
Output: 5.09

----------
# target.entity: 2,3,5-F3Y158 InhA
# experimental.conditions: read-out: Kiapp; PT166, rapid reversible, global fit to equations 6 and 7
assay.endpoint: pKi
Please treat pKi as minus the base-10 logarithm of the molar concentration.

Task: Can you share its pKi? I mean this molecule: CCCCCCc1cc(=O)c(Oc2ccccc2C)cn1C [PT166]
Output: 6.67

----------
# target.entity: wild-type InhA (Mycobacterium tuberculosis, UniProt P9WGR1)
# Sequence (P9WGR1 whole entry, looked up): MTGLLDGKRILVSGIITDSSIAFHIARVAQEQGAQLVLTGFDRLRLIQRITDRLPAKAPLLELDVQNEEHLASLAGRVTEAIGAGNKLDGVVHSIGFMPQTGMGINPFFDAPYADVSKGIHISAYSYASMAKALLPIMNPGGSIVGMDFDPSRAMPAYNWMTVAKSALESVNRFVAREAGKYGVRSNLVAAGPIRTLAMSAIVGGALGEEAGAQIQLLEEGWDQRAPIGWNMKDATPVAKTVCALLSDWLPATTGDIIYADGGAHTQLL
assay.endpoint: pKi
Note: pKi values are expressed as the negative base-10 logarithm of concentration in M.

Task: Can you look up pKi on wild-type InhA (Mycobacterium tuberculosis, UniProt P9WGR1) for `CCCCCCc1cc(=O)c(Oc2ccccc2C)cn1C` ?
Output: 7.51
